Each recorded value in this set is attributed to the supplement of paper PMC9112550.

test system: Escherichia coli TOP10; assay: shrunken log2 fold change of peptide-encoding DNA abundance (4.5 h post-induction vs induction); higher = less antimicrobial activity (less host growth inhibition); settings: time post-induction: 4.5 h; library: site-saturation at positions 5, 18, 19, 20
PROPERTY NAME: shrunken log2 fold change
Please reply with the value in numeric form only.

1) RRIRNRPPRLPRPRPRPGRLPRP
-0.0294
2) RRIRDRPPRLPRPRPRPGPIPRP
-0.0864
3) RRIRYRPPRLPRPRPRPCQPPRP
-0.354
4) RRIRWRPPRLPRPRPRPMPSPRP
-0.116
5) RRIRPRPPRLPRPRPRPAQAPRP
0.329
6) RRIRSRPPRLPRPRPRPLDCPRP
-0.212

Inquiry: Please report the recorded shrunken log2 fold change for RRIRERPPRLPRPRPRPDFEPRP .
Reply text: -0.117

Inquiry: Please report the recorded shrunken log2 fold change for RRIRTRPPRLPRPRPRPVLQPRP .
Reply text: 4.38

Inquiry: Please report the recorded shrunken log2 fold change for RRIRDRPPRLPRPRPRPYQNPRP .
Reply text: -0.288

Inquiry: Please report the recorded shrunken log2 fold change for RRIRLRPPRLPRPRPRPYMTPRP .
Reply text: -0.82

Inquiry: Please report the recorded shrunken log2 fold change for RRIRCRPPRLPRPRPRPKLEPRP .
Reply text: -0.125

Inquiry: Please report the recorded shrunken log2 fold change for RRIRNRPPRLPRPRPRPTLCPRP .
Reply text: 0.00464

Inquiry: Please report the recorded shrunken log2 fold change for RRIRERPPRLPRPRPRPIMAPRP .
Reply text: -1.15

Inquiry: Please report the recorded shrunken log2 fold change for RRIRDRPPRLPRPRPRPSDPPRP .
Reply text: -0.0499

Inquiry: Please report the recorded shrunken log2 fold change for RRIRRRPPRLPRPRPRPGNMPRP .
Reply text: -0.266

* * *

We begin with a simple list: items and their reported shrunken log2 fold change.
system: Escherichia coli TOP10; experiment: shrunken log2 fold change of peptide-encoding DNA abundance (4.5 h post-induction vs induction); higher = less antimicrobial activity (less host growth inhibition); conditions: time post-induction: 4.5 h; library: site-saturation at positions 5, 18, 19, 20
Please reply with the value in numeric form only.

Sample answers from the record:
1. RRIRMRPPRLPRPRPRPGFLPRP
0.113
2. RRIRDRPPRLPRPRPRPTHGPRP
0.117
3. RRIRVRPPRLPRPRPRPFHIPRP
-0.527
4. RRIRFRPPRLPRPRPRPTGHPRP
-0.287
5. RRIRERPPRLPRPRPRPYETPRP
0.0614
6. RRIRMRPPRLPRPRPRPDSYPRP
0.0873
7. RRIRMRPPRLPRPRPRPPRKPRP
1.49
8. RRIRQRPPRLPRPRPRPSWPPRP
-0.0496
9. RRIRERPPRLPRPRPRPWLAPRP
0.564
10. RRIRVRPPRLPRPRPRPMNPPRP
-0.421

Inquiry: Please tell me: shrunken log2 fold change of RRIRNRPPRLPRPRPRPSPNPRP , system Escherichia coli TOP10?
Reply text: -0.552

Inquiry: Please tell me: shrunken log2 fold change of RRIRNRPPRLPRPRPRPKHNPRP , system Escherichia coli TOP10?
Reply text: -0.434

* * *

test system: Escherichia coli TOP10; assay: shrunken log2 fold change of peptide-encoding DNA abundance (4.5 h post-induction vs induction); higher = less antimicrobial activity (less host growth inhibition); conditions: time post-induction: 4.5 h; library: site-saturation at positions 5, 18, 19, 20
PROPERTY NAME: shrunken log2 fold change
Please reply with the value in numeric form only.

Sample answers from the record:
1) RRIRTRPPRLPRPRPRPYRVPRP
0.0325
2) RRIRNRPPRLPRPRPRPCMWPRP
-0.0288

Inquiry: Please tell me: shrunken log2 fold change of RRIRERPPRLPRPRPRPMIHPRP , system Escherichia coli TOP10?
Reply text: -0.65

Inquiry: Please tell me: shrunken log2 fold change of RRIRSRPPRLPRPRPRPLTNPRP , system Escherichia coli TOP10?;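 also: peptides expressed intracellularly from a pBAD plasmid library in pooled LB shake-flask culture, induced with 0.3% L-arabinose, DNA abundance read by NGS, three biological replicates, DESeq2 with apeglm shrinkage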
Reply text: -0.101
